B1: Ribonuclease, P00648 (parent)
chain: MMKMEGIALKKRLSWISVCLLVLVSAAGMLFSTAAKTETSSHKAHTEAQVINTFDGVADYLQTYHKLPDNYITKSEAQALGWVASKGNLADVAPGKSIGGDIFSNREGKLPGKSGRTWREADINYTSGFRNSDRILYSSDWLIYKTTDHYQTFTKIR

Variants of: B1
Settings: Bacillus amyloliquefaciens; pH 6.3; Thermal; Fluorescence; MES 50 mM; reversible: yes (>85%); structure 1BNI; whole UniProt chain shown
Property: unfolding enthalpy (van 't Hoff); scope: individual variants
MEASURE: unfolding enthalpy (van 't Hoff) (kcal/mol)

mutation_descriptor=I143V recorded_result=121
mutation_descriptor=I135A recorded_result=106
mutation_descriptor=I135V recorded_result=117
mutation_descriptor=L61A recorded_result=108
mutation_descriptor=I143A recorded_result=112
